molecular target: tissue transglutaminase (TG2), C-terminal His-tag TG2 (Homo sapiens); construct: host or cells: Novagen Rosetta 2 (DE3) E. coli; assay: continuous AL5 hydrolysis assay of irreversible TG2 inhibition (kobs vs [I]/α); assay type: biochemical; settings: irreversible inhibition, AL5 100 μM, pH 6.9, 25 °C, triplicate
Sequence (P21980 whole entry): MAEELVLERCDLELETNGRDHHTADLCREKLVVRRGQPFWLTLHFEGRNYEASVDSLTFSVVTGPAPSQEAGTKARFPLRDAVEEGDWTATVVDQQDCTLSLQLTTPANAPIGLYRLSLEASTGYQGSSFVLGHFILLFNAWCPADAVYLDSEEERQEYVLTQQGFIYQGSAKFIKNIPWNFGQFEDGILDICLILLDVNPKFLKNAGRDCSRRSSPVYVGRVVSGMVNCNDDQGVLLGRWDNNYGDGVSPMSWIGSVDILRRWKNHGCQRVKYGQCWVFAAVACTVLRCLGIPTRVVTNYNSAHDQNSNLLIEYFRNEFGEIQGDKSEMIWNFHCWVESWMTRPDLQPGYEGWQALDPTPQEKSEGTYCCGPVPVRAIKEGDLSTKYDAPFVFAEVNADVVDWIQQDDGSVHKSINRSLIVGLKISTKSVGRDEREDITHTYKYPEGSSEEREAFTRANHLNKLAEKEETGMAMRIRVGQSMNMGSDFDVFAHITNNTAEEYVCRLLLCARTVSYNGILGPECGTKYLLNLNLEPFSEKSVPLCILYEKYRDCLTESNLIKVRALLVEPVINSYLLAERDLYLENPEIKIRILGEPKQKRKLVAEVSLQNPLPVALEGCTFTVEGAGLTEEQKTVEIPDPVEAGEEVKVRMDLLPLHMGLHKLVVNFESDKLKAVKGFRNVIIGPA
reportedEndpoint: KI (inactivation) (nM)

>>> print(df.to_string())
                                   molecule  reportedvalue
0  C=CC(=O)NCC(=O)N1CCN(C(=O)C23CC4CC(CC(I)(C4)C2)C3)CC1 [Compound 29]           1400
1  C=CC(=O)NCC(=O)N1CCN(C(=O)c2ccccc2Cc2ccccc2)CC1 [Compound 22a]          14200
2  C=CC(=O)NCC(=O)N1CCN(C(=O)C23CC4CC(CC(Cl)(C4)C2)C3)CC1 [Compound 25b]           1790

From: paper PMC12631574
